For each entry below, report its percent inhibition of viability value.
system: YT (IL-2 2.5 ng/mL); experiment: percent inhibition of viability; higher = more inhibition; conditions: 72 h; 100 nM;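 further: normalised to DMSO-only wells as negative and benzethonium chloride as positive control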
Numbers only, in %.

Recorded percent inhibition of viability, per entry:
[
  {
    "Compound": "CC[C@]1(O)C[C@@H]2CN(CCc3c([nH]c4ccccc34)[C@@](C(=O)OC)(c3cc4c(cc3OC)N(C)[C@H]3[C@@](O)(C(=O)OC)[C@H](OC(C)=O)[C@]5(CC)C=CCN6CC[C@]43[C@@H]65)C2)C1 [Vinblastine] (max concentration tested 1000 nM)",
    "Target desc": "YT (IL-2 2.5 ng/mL)",
    "Quantity unit": "%",
    "Measured": 105
  },
  {
    "Compound": "Cc1[nH]c(/C=C2\\C(=O)Nc3ccccc32)c(C)c1CCC(=O)O [Orantinib] (max concentration tested 10000 nM)",
    "Target desc": "YT (IL-2 2.5 ng/mL)",
    "Quantity unit": "%",
    "Measured": 0.41
  },
  {
    "Compound": "C#Cc1cccc(Nc2ncnc3cc4c(cc23)OCCOCCOCCO4)c1 [Icotinib] (max concentration tested 10000 nM)",
    "Target desc": "YT (IL-2 2.5 ng/mL)",
    "Quantity unit": "%",
    "Measured": 2.3
  },
  {
    "Compound": "C[C@@H]1C[C@H]2O[C@@H]2/C=C\\C=C\\C(=O)Cc2c(Cl)c(O)cc(O)c2C(=O)O1 [Radicicol] (max concentration tested 10000 nM)",
    "Target desc": "YT (IL-2 2.5 ng/mL)",
    "Quantity unit": "%",
    "Measured": 16.1
  },
  {
    "Compound": "O=C(/C=C\\n1cnc(-c2cc(C(F)(F)F)cc(C(F)(F)F)c2)n1)NNc1cnccn1 [Selinexor] (max concentration tested 10000 nM)",
    "Target desc": "YT (IL-2 2.5 ng/mL)",
    "Quantity unit": "%",
    "Measured": 61.2
  },
  {
    "Compound": "Cc1cnc(NC(=O)Nc2cc(Br)c(C)cc2OC[C@@H]2CNCCO2)cn1 [Rabusertib] (max concentration tested 1000 nM)",
    "Target desc": "YT (IL-2 2.5 ng/mL)",
    "Quantity unit": "%",
    "Measured": -2
  }
]

Respectfully, I request percent inhibition of viability for each entry included below.
1. CN(c1ccccc1CNc1nc(Nc2ccc3c(c2)CC(=O)N3)ncc1C(F)(F)F)S(C)(=O)=O (max concentration tested 10000 nM)
2. S=c1[nH]cnc2nc[nH]c12 [Mercaptopurine] (max concentration tested 10000 nM)

[-5.3, 3.64]

Respectfully, I request percent inhibition of viability for each entry included below.
1. N#CC(c1ccnc(OCc2ccc(CN3CCOCC3)cc2)n1)c1nc2ccccc2s1 (stereo not drawn) [Bentamapimod] (max concentration tested 10000 nM)
2. NC(=O)c1ccc(I)c([N+](=O)[O-])c1 [Iniparib] (max concentration tested 10000 nM)
3. C=CC(=O)Nc1cc2c(Nc3ccc(F)c(Cl)c3)ncnc2cc1OCCCN1CCOCC1 [Canertinib] (max concentration tested 10000 nM)
4. CN(C)c1cc2c(cc1Sc1nc3c(N)nccc3n1CCNCC(C)(C)C)OCO2 [CUDC-305] (max concentration tested 10000 nM)
5. Cc1[nH]c2ccccc2c1CCNCc1ccc(/C=C/C(=O)NO)cc1 [Panobinostat] (max concentration tested 1000 nM)

1: 3.3; 2: 4.79; 3: 3.25; 4: 5.06; 5: 101

Each recorded value in this set is attributed to the supplement of paper PMC5908809.
